Origin of the recorded values: patent US10184116B2

# Relative luminescence activity, 6h-CTZ, Imax per record follows
test: Substrate specificity of WNanoKAZ mutants, crude enzyme solution (Example 11); type: biochemical; settings: substrate 6h-CTZ, Imax
Could you respond with only the numeric value?

molecule	endpointValue
WNanoKAZ-K124Q: single amino acid-substituted WNanoKAZ mutant K124Q; SEQ ID NO: 12 (protein) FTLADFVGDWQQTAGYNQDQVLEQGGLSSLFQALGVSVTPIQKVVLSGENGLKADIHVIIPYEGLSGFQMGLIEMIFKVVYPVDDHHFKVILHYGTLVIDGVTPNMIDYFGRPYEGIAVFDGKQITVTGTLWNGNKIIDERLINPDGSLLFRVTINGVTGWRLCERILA	6.2

Recall and state the measured Relative luminescence activity, 6h-CTZ, Imax for WNanoKAZ-R166N: single amino acid-substituted WNanoKAZ mutant R166N; SEQ ID NO: 16 (protein) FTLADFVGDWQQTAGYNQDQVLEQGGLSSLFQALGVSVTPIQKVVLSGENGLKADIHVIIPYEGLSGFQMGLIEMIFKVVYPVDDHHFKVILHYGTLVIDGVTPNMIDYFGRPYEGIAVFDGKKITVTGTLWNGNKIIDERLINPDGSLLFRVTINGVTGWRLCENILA .
4.6
